# Assay: probe aDKK1 binding to arrayed compounds – biochemical, biotinylated probe, 635/667 nm fluorescence, primary screen (AID 1099);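 note: score merges 667nm spot fluorescence with signal to noise across triplicate slides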
# Assay Context: small-molecule microarray, higher = more signal
# composite z-score annotations
Keep it simple and answer with nothing but the number.

INSERT INTO assay_data (compound, measurement_kind, result_value) VALUES
  ('O=C1C2C=CC(C(O)C3CCCCC3)N(n3cnnc3)C2C(=O)N1Cc1ccccc1 (centres undefined)', 'composite z-score', 0.224),
  ('O=C1[C@H]2C=C(I)[C@H](C[C@@H]2OCCCCCCO)[C@@]12CO2', 'composite z-score', -0.261),
  ('Cc1ccc(S[C@]2(C(=O)NC(C)C)CC(=O)N(C3CCCCC3)[C@@H]2c2ccc(CO)cc2I)cc1', 'composite z-score', 0.763),
  ('COc1ccc([Si](C)(C)[C@@H]2[C@@H](CC(=O)N3CCC[C@H]3CO)O[C@]3(C(=O)N(Cc4ccc(N5CCOC5=O)cc4)c4ccccc43)[C@H]2C)cc1', 'composite z-score', -0.3),
  ('CN(C)CCCC[C@@H]1NC(=O)[C@@H]2C[C@H](C(=O)NCCCCCCNC(=O)CS)[C@H](c3ccc(O)cc3)N2C1=O', 'composite z-score', -0.165);

Measured composite z-score of CCOC(=O)C[C@H]1[C@H](OC(=O)c2ccccc2-c2ccccc2)[C@@H](NC(=O)c2ccc3ccccc3c2)c2cc(OCCCO)ccc2N1C(=O)Cc1ccc(OC)cc1 : 0.29

Measured composite z-score of C=C1C(=O)C=C2CN(C(=O)c3ccccc3)[C@@](Cc3ccc(OC)cc3)(C(=O)OC)[C@@H]12 : 1.18

Measured composite z-score of [N-]=[N+]=NCc1ccccc1[C@@H]1OC(c2ccc(OCCCO)cc2)=N[C@]1(Cc1ccccc1N=[N+]=[N-])C(=O)NCC(O)CO (some centres undefined) : 1.28

Measured composite z-score of NC(=O)N1C(=O)C2C(C1=O)C1C=C(CCCO)C2C(c2ccc(CN3CCCC3)cc2)N1Cc1cc2c(cc1Br)OCO2 (centres undefined) : -0.204

Measured composite z-score of O=C1C2C=CC(C(O)c3c(F)cccc3Cl)N(Nc3ccc([N+](=O)[O-])cc3)C2C(=O)N1c1ccccc1 (centres undefined) : -0.124

* * *

# Target Under Test: Fibroblast growth factor 10 (Homo sapiens) (UniProt O15520)
# Sequence (O15520 whole entry, looked up): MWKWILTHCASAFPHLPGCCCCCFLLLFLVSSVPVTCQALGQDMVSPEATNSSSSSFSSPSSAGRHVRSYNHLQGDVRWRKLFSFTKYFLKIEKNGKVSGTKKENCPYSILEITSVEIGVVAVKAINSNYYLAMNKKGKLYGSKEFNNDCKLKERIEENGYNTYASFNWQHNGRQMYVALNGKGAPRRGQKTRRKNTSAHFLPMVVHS
# Assay: compounds binding fibroblast growth factor 10 – biochemical, small-molecule microarray, 635 nm fluorescence, primary screen (AID 1102)
# Assay Context: FGF10 binding, fluorescence 635 nm, higher = more signal
Measurement Kind: composite z-score
Keep it simple and answer with nothing but the number.

Measured composite z-score of COC(=O)[C@@]1(Cc2ccccc2)N=C(c2ccc(OCCCO)cc2)O[C@H]1c1ccccc1CN=[N+]=[N-] : 0.722

Measured composite z-score of CN1C(=O)C2C(C1=O)C1C=C(c3ccc(CO)cc3)C2C(C2CC2)N1C (centres undefined) : 0.192

Measured composite z-score of CC(C)C[C@@H]1NC(=O)[C@@H]2C[C@H](C(=O)NCCCCCCNC(=O)CS)[C@H](c3cccc(OCCO)c3)N2C1=O : 1.31

Measured composite z-score of CCCC=C(CCC)[C@@H](NC(=O)c1ccc(C(F)(F)F)cc1)c1ccc(C(F)(F)F)cc1 : 0.793

Measured composite z-score of CCCCC(=C=CC[C@H](O)c1ccc(CO)o1)CCO : 0.738

Measured composite z-score of COC(=O)C(CC#Cc1ccc2c(c1)[C@]1(C(=O)N2)[C@H](C(=O)NC[C@H](O)c2ccccc2)[C@H]2C(=O)O[C@H](c3ccccc3)[C@H](c3ccccc3)N2[C@@H]1c1ccccc1OCCO)C(=O)OC : 1.22

Measured composite z-score of CN(C)CCCC[C@@H]1NC(=O)[C@@H]2C[C@H](C(=O)NCCCCCN)[C@H](c3cccc(OCCO)c3)N2C1=O : 0.824

Measured composite z-score of CN(C)CCCNC(=O)[C@@]1(Cc2ccccc2I)c2ccccc2C(=O)N(C2CCCCC2)[C@H]1c1ccc(CO)cc1 : 0.269

* * *

# Assay: binders from COS7 lysate, DM2A8 probe, primary screen, torsin A project, cell lysate, small-molecule microarray, fluorescence 635/667 (AID 1065)
# Assay Context: higher = more signal, COS7 lysate expressing mutant human TOR1A
Note to self: class labels come from recorded composite z-score, ranges listed here: category 1: < -0.08; category 2: ≥ -0.08 and < 0.6; category 3: ≥ 0.6

Previously resolved entries follow.
INSERT INTO assay_data (molecule, label_value) VALUES
  ('CC1CC/C=C\[C@H]2OC34C=CCN(CCN5CCOCC5)C(=O)[C@H]3N(CCCO)C(=O)[C@@H]4C2C(=O)O1 (some centres undefined)', 'category 2'),
  ('COC(=O)[C@@]1(Cc2ccc(F)cc2)[C@H]2c3cc(C(=O)N4CCCC4)n(CCc4ccccn4)c3C[C@H]2CN1C(=O)c1ccccc1', 'category 1'),
  ('CCCN1C(=O)[C@]2(CCC(=O)OC(C)(C)C)N=C(c3ccc(OCCCO)cc3)O[C@@H]2c2ccccc21', 'category 3'),
  ('CC(C)C(=C=CC[C@H](O)c1ccccc1OCCO)C[C@H](O)COCc1ccccc1', 'category 1'),
  ('COC(=O)[C@@]1(Cc2ccccc2)[C@H]2c3cc(C(=O)N4CCCC4)n(Cc4ccc(OC)c(OC)c4)c3C[C@H]2CN1C(=O)c1ccccc1', 'category 2');

We now examine a further molecule.
Assign a bin to COC(=O)[C@@]1(Cc2ccc(OC)cc2)[C@H]2c3cc(C(=O)N4CCCC4)n(Cc4ccc(C(F)(F)F)nc4)c3C[C@H]2CN1C(=O)c1ccccc1
category 2

* * *

# Test system: Wnt5a (protein binding on small-molecule microarray)
# Assay: small molecules binding Wnt5a protein – biophysical, small-molecule microarray, 635/667 nm fluorescence, primary screen (AID 1142);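 note: fluorescence read at 667 nm with signal to noise per printed feature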
# Assay Context: 635 nm fluorescence, higher = more signal
Give fulfilled when the value for composite z-score is at least 0.5. Give not fulfilled when it is less.

Previously resolved entries follow.
INSERT INTO assay_data (compound, label_value) VALUES
  ('Cc1ccc(S[C@]2(C(=O)NC3CC3)CC(=O)N(C(C)C)[C@@H]2c2ccc(CO)cc2I)cc1', 'not fulfilled'),
  ('CCN(CC)c1ccc(N2CC=CC34O[C@@H]5C=CCCOC(=O)C5[C@H]3C(=O)N(C(C)CO)[C@@H]4C2=O)cc1 (stereo partly specified)', 'not fulfilled'),
  ('O=C1O[C@@H](c2ccccc2)[C@@H](c2ccccc2)N2[C@@H](c3ccccc3OCCO)[C@]3(C(=O)Nc4ccc(C#CCCO)cc43)[C@@H](C(=O)NC[C@H](O)c3ccccc3)[C@H]12', 'not fulfilled'),
  ('NCCCCCCNC(=O)[C@@H]1C[C@@H]2C(=O)N3CCC[C@H]3C(=O)N2[C@@H]1c1cccc(OCCO)c1', 'fulfilled'),
  ('COC(=O)[C@@]1(Cc2ccccc2)[C@H]2c3cc(C(=O)N(C)C)n(CCSC(=N)N)c3C[C@H]2CN1C(=O)c1ccccc1', 'not fulfilled');

We now examine a further compound.
Dear colleague, could you confirm whether C=CCOC(=O)[C@@H]1[C@H]2C(=O)O[C@H](c3ccccc3)[C@H](c3ccccc3)N2[C@H](c2ccc(OCCOC(=O)[C@H]3C[C@H]4C(=O)N5CCC[C@H]5C(=O)N4[C@H]3c3cccc(OCCO)c3)cc2)[C@@]12C(=O)Nc1ccc(I)cc12 has composite z-score at or above 0.5?
not fulfilled

* * *

# composite z-score annotations
# Target Under Test: Calmodulin-1 (Homo sapiens) (UniProt P0DP23)
# Assay: small molecules binding Ca-loaded calmodulin-1 – biochemical, small-molecule microarray, Cy5-labelled CALM1, plus calcium, artefact control for SMM control-protein annotation, profiling panel (AID 1112);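 note: score merges spot fluorescence with signal to noise from triplicate slides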
# Assay Context: Cy5-CALM1 binding fluorescence, higher = more signal
Keep it simple and answer with nothing but the number.

Please review the entries below; each comes with its answer.
INSERT INTO measurements (compound, measurement_kind, result_value) VALUES
  ('CC(C)N1C(=O)c2ccccc2[C@](C)(C(=O)NCC(F)(F)F)[C@@H]1c1ccc(CO)cc1', 'composite z-score', 0.179),
  ('C=CCOC(=O)[C@H]1[C@@H]2C(=O)O[C@@H](c3ccccc3)[C@@H](c3ccccc3)N2[C@@H](c2ccc(OCCOC(=O)[C@@H]3C[C@@H]4C(=O)N[C@@H](CCCC[N+](C)(C)C)C(=O)N4[C@@H]3c3ccc(O)cc3)cc2)[C@]12C(=O)Nc1ccc(I)cc12', 'composite z-score', -0.49),
  ('CC1CC/C=C\[C@H]2OC34C=CCN(c5ccc6ccccc6c5)C(=O)[C@H]3N(C(C)CO)C(=O)[C@@H]4C2C(=O)O1 (stereo not given in full)', 'composite z-score', -0.607),
  ('COC(=O)[C@@]1(Cc2ccccc2)N=C(c2ccc(OCCCO)cc2)O[C@H]1c1ccccc1CN=[N+]=[N-]', 'composite z-score', -0.193),
  ('CCCNC(=O)[C@@]1(Sc2ccc(C)cc2)CC(=O)N(Cc2ccccc2Cl)[C@@H]1c1ccc(CO)cc1I', 'composite z-score', 0.321);

Measured composite z-score of CC(C)NC(=O)[C@@]1(C)c2ccccc2C(=O)N(Cc2ccccc2)[C@H]1c1ccc(CO)cc1 : -0.672

Measured composite z-score of CC(C)N1C(=O)C[C@@](C(=O)NCCN2CCOCC2)(c2ccc([N+](=O)[O-])cc2)[C@H]1c1ccc(CO)cc1 : -0.272

Measured composite z-score of COC(=O)C1(Cc2ccccc2)C=C2C(=C(C)C(=O)C2C)CN1 (stereo not given) : 0.536

Measured composite z-score of NCCCCCCNC(=O)[C@@H]1C[C@@H]2C(=O)N3CCC[C@H]3C(=O)N2[C@@H]1c1cccc(OCCO)c1 : -0.334
